- Tested on: p-p70 S6 Kinase (Thr389) in MCF-7 cells
- Assay: AlphaLISA Ultra pS6K1 assay
- Format: cell-based
- Reported conditions: Homo sapiens, 1.5 h; MCF7 cells, 90 min
- Experimental: Example 55: AlphaLISA Ultra pS6K1 Assay Assay Protocol: • 1. Seed MCF-7 cells in Corning 3701 plate and incubate for 20˜24 hour. 12,000˜16,000 cells will be seeded in 36 μL medium per well. • 2. Change the culture medium with fresh medium and incubate for another 2 hours. • 3. Add 12 μL (4×) compounds into the cell plate by HAMILTON. Final DMSO concentration is 0.5%. Incubate for 90 minutes. • 4. Aspirate 38 μL by HAMILTON, 10 μL rest per well. • 5. […] Count the plate by EnSpire Multimode Plate Reader
pIC50: −log10 of the molar value.
Metric: pIC50

Example cases with answers are listed next.
1) CNCCOCCOC1C[C@@H]2CC[C@@H](C)[C@@](O)(O2)C(=O)C(=O)N2CCCC[C@H]2C(=O)O[C@H]([C@H](C)C[C@@H]2CC[C@@H](OC)[C@H](OC)C2)CC(=O)[C@H](C)/C=C(\C)[C@@H](OC)[C@@H](OC)C(=O)[C@H](C)C[C@H](C)/C=C/C=C/C=C/1C (stereo partly drawn): 7.00 to 8.00
2) CO[C@@H]1/C(C)=C/[C@@H](C)C(=O)C[C@@H]([C@H](C)C[C@@H]2CC[C@@H](O)[C@H](OC)C2)OC(=O)[C@@H]2CCCCN2C(=O)C(=O)[C@]2(O)O[C@@H](CC[C@H]2C)C[C@H](OCC2COCCO2)/C(C)=C/C=C/C=C/[C@@H](C)C[C@@H](C)C(=O)[C@@H]1OC (stereo partly drawn): 7.00 to 8.00

Okay, next one:
Value (pIC50, p-p70 S6 Kinase (Thr389) in MCF-7 cells) for record CO[C@@H]1C[C@H](C[C@@H](C)[C@@H]2CC(=O)[C@H](C)/C=C(\C)[C@@H](O)[C@@H](OC)C(=O)[C@H](C)C[C@H](C)/C=C/C=C/C=C(\C)C(OCCOC3COC3)C[C@@H]3CC[C@@H](C)[C@@](O)(O3)C(=O)C(=O)N3CCCC[C@H]3C(=O)O2)CC[C@H]1OCCCN1CC2(COC2)C1 (stereo partly drawn) = 8.00 to 9.00
